Target: T1, cynomolgus GITR (cyGITR), soluble analyte (cynomolgus)
T1 construct: Soluble analyte in SPR; construct not described; also called cGITR
Assay: SPR (Biacore T200), 37 C; antibody captured on anti-human Fc chip, GITR as analyte; 1:1 Langmuir fit
PROPERTY: koff (s⁻¹)
Dear colleague, please return just the value in s⁻¹, with no unit written.

Recorded koff for h3G7 LF (antibody, V domains shown, Whole IgG captured on an anti-human Fc chip) VH: QVQLVQSGAEVKKPGASVKVSCKASGYTFTGATMNWVRQAPGQGLEWMGLINPYTGGIRYNQKFKGRVTMTRDTSTSTVYMELSSLRSEDTAVYYCARIGGYYDTMDYWGQGTLVTVSS VL: DIQMTQSPSSLSASVGDRVTITCRASESVEPRGINFLNWYQQKPGKAPKLLIYAASQASKGVPSRFSGSGSGTDFTLTISSLQPEDFATYYCQQALELPWTFGGGTKVEIK , please?
0.023

FYI, the data here is from patent US20200031947A1.
